Cited source: patent US20200308270A1

# Lookup of reported pKd keyed by entry
Study system: T1, recombinant human sFas receptor (human, UniProt P25445 17-173, limits assumed)
T1 construct: Bought reagent
T1 sequence (looked up): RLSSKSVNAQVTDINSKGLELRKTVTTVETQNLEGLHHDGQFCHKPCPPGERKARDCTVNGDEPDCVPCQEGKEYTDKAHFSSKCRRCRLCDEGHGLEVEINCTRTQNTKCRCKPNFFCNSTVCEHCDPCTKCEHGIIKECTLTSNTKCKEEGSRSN
Run description: SPR (Biacore T200), Fas immobilized, Fab analyte
Keep in mind that pKd stands for -log10 of concentration in molar terms.

Example entries begin here.
[[record]]
binder = "EP6b_B01 designed Vlambda-Ckappa chimeric Fab, design 32 (E83I_D85T) (Fab, name in Kabat numbering, V domains shown) VH: QLQLQESGPGLVKPSETLSLTCTVSGASISANSYYGVWVRQSPGKGLEWVGSIAYRGNSNSGSTYYNPSLKSRATVSVDSSKNQVSLRLTSVTAADTALYYCARRQLLDDGTGYQWAAFDVWGQGTMVTVSS VL: QSVLTQPPSVSEAPRQTVTISCSGNSSNIGRYPVNWYQQLPGKAPKLLIYSDNLRFSGVPDRFSGSKSGTTASLAIRDLLSEDIATYYCSTWDDTLEGWVFGGGTKVTVLR"
measured_value = 10.33

[[record]]
binder = "EP6b_B01 wild-type lambda Fab (Fab, V domains shown, Truncated heavy chain (VH-CH1-upper IgG1 hinge, no His tag) and wild-type lambda light chain; also called WT) VH: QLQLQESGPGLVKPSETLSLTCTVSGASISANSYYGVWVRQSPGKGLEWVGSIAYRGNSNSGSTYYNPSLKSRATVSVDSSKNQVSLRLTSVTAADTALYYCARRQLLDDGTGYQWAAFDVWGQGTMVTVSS VL: QSVLTQPPSVSEAPRQTVTISCSGNSSNIGRYPVNWYQQLPGKAPKLLIYSDNLRFSGVPDRFSGSKSGTTASLAIRDLLSEDEADYYCSTWDDTLEGWVFGGGTKVTVLG"
measured_value = 10.26


Now turn to the next binder.
Return reported pKd; argument: EP6b_B01 designed Vlambda-Ckappa chimeric Fab, design 37 (E83A_D85T) (Fab, name in Kabat numbering, V domains shown) VH: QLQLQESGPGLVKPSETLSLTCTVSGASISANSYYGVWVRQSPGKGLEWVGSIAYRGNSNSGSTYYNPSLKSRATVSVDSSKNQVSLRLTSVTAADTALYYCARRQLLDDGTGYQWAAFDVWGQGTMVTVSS VL: QSVLTQPPSVSEAPRQTVTISCSGNSSNIGRYPVNWYQQLPGKAPKLLIYSDNLRFSGVPDRFSGSKSGTTASLAIRDLLSEDAATYYCSTWDDTLEGWVFGGGTKVTVLR 10.31
